What inhibition at 1.25 µM was measured for each of the following?
- measuredTarget: PARK7 (Homo sapiens)
- testDetails: High-throughput screen of the crude compound library, PARK7 fluorescence polarization (FP) assay with FP reagent JYQ-107
- Assay type: biochemical
- statedConditions: 1.25 µM, crude compound library; read-out: HTS FP assay %Inhibition (1.25 µM)
One number for each entry, in %.

Let me know recorded inhibition at 1.25 µM for Cc1c[nH]c(=O)n1-c1cccc(C(=O)N2CCc3nc(NC(=O)[C@@H]4CCN(C#N)C4)sc3C2)c1 [Compound 315] , thanks. 90

Give me measured inhibition at 1.25 µM, please, for this compound: CCC1(Cn2cc(C(=O)N3CCc4nc(NC(=O)[C@@H]5CCN(C#N)C5)sc4C3)nn2)COC1 [Compound 83] 92.3

Item N#CN1CC[C@@H](C(=O)Nc2nc3c(s2)CN(C(=O)CC2(n4cccc4)CCCCC2)CC3)C1 [compound 145] : provide inhibition at 1.25 µM 83.7

Proceed to the following item.
For N#CN1CC[C@@H](C(=O)Nc2nc3c(s2)CN(C(=O)Cc2ccc(NS(=O)(=O)c4c(Cl)cccc4Cl)cc2)CC3)C1 [compound 57] , write its inhibition at 1.25 µM. 84.9

* * *

- measuredTarget: PARK7 (Homo sapiens, UniProt Q99497)
- Sequence (Q99497 whole entry): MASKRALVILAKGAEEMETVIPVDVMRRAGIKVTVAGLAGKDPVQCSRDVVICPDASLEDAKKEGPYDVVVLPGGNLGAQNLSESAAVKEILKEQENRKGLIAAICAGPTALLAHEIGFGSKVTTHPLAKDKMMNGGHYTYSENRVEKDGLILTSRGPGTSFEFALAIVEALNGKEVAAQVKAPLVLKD
- testDetails: Hit validation and pure-compound testing in the PARK7 FP assay with JYQ-107
- Assay type: biochemical
- statedConditions: crude compounds, 0.25 µM; read-out: % Inhibition 0.25 µM
testReadout: inhibition at 0.25 µM (%)
One number for each entry, in %.

Solved cases below.
Give the value of inhibition at 0.25 µM reported for the following: `COc1ccccc1-c1cc(C(=O)N2CCc3nc(NC(=O)[C@@H]4CCN(C#N)C4)sc3C2)n[nH]1` 48.1

Read off the recorded inhibition at 0.25 µM for `COc1ccc(C(=O)N2CCc3nc(NC(=O)[C@@H]4CCN(C#N)C4)sc3C2)cc1S(=O)(=O)NCCCN1CCOCC1` 46.8

Give me measured inhibition at 0.25 µM, please, for this compound: `N#CN1CC[C@@H](C(=O)Nc2nc3c(s2)CN(C(=O)c2ccc(Oc4cccc(Cl)c4)cn2)CC3)C1` 33.9

Please indicate inhibition at 0.25 µM recorded for `N#CN1CC[C@@H](C(=O)Nc2nc3c(s2)CN(C(=O)c2cccnc2Oc2ccccc2Br)CC3)C1` 63

Hi! Can you tell me inhibition at 0.25 µM for each of these compounds?
1. N#CN1CC[C@@H](C(=O)Nc2nc3c(s2)CN(C(=O)c2ccc(-c4ccccn4)nc2)CC3)C1
2. N#CN1CC[C@@H](C(=O)Nc2nc3c(s2)CN(C(=O)c2cnn(-c4cccc(Br)c4)c2)CC3)C1
3. N#CN1CC[C@@H](C(=O)Nc2nc3c(s2)CN(C(=O)c2cc(C4CCCCC4)[nH]n2)CC3)C1
4. CC(=O)N1CCN(S(=O)(=O)c2cccc(C(=O)N3CCc4nc(NC(=O)[C@@H]5CCN(C#N)C5)sc4C3)c2)CC1
5. Cc1ccc(-c2cc(C(=O)N3CCc4nc(NC(=O)[C@@H]5CCN(C#N)C5)sc4C3)[nH]n2)o1

1: 44.5; 2: 50.5; 3: 48.2; 4: 76.8; 5: 52

I would be grateful if you could provide inhibition at 0.25 µM for each of the following entries.
1. Cn1cc(-c2cc(C(=O)N3CCc4nc(NC(=O)[C@@H]5CCN(C#N)C5)sc4C3)n[nH]2)cn1
2. N#CN1CC[C@@H](C(=O)Nc2nc3c(s2)CN(C(=O)c2cccc(-c4ncn[nH]4)c2)CC3)C1
3. N#CN1CC[C@@H](C(=O)Nc2nc3c(s2)CN(C(=O)c2cc(S(=O)(=O)NCCCN4CCCC4=O)ccc2Cl)CC3)C1
4. Cc1nc(-c2cnn(C)c2)sc1C(=O)N1CCc2nc(NC(=O)[C@@H]3CCN(C#N)C3)sc2C1
5. Cc1ccc([C@@H]2C[C@H]2C(=O)N2CCc3nc(NC(=O)[C@@H]4CCN(C#N)C4)sc3C2)s1

[51.5, 66.1, 45, 54.6, 53.3]
